The measured values listed here are drawn from PubChem BioAssay (EPA / NIEHS).

Test: Tanguay_ZF_120hpf_NC_legacy: (Legacy) Oregon State University Tanguay Lab 120 Hour Post-fertilization zebrafish Assay for Notochord and Tail Malformation (AID 2283656)
Results filed as inconclusive are left out. Calls of active or inactive are those of the source. The calls were made as follows: active = hit-call score of the fitted dose curve at least 0.9, where 1 is the maximum; inconclusive = response in the unintended direction; inactive = score below 0.9.
Valid outcomes are listed here; reply with one: active, inactive

Sample answers from the record:
{"columns": ["compound", "assigned_category"],
 "data": [
  ["CNS(=O)(=O)c1cc(C(=O)N2CCC(CCN3C4CCC3CC(n3c(C)nc5ccccc53)C4)(c3cccc(F)c3)CC2)c(Cl)cc1F (stereo not given)", "inactive"],
  ["NC(=O)NO", "inactive"],
  ["CC(C)=CCCC(C)CCO (stereo not given)", "inactive"],
  ["Cn1c(=O)cc(Oc2ccc(F)cc2F)c2cnc(NCC(C)(C)O)nc21", "inactive"],
  ["COC(=O)c1ccccc1O", "inactive"]
]}

Asked: Dear all, I need the recorded test outcome for "CCOCCOCCOCCO" , thank you.
Given back: inactive

Asked: Dear all, I need the recorded test outcome for "COC(=O)CC(=O)OC" , thank you.
Given back: inactive

Asked: Dear all, I need the recorded test outcome for "Cn1cnc([N+](=O)[O-])c1Sc1ncnc2nc[nH]c12" , thank you.
Given back: inactive

Asked: Dear all, I need the recorded test outcome for "O=C(O)c1cccc(N(Cc2cccnc2)c2ccc(OC(F)F)c(OC(F)F)c2)c1" , thank you.
Given back: inactive

Asked: Dear all, I need the recorded test outcome for "CC(C)=CCCC(C)=CC=O" , thank you.
Given back: inactive

Asked: Dear all, I need the recorded test outcome for "Cc1ccc(S(=O)(=O)O)cc1C" , thank you.
Given back: inactive

Asked: Dear all, I need the recorded test outcome for CCCCC(CC)COC(=O)c1ccc(C(=O)OCC(CC)CCCC)cc1 (stereo not given) , thank you.
Given back: inactive

Asked: Dear all, I need the recorded test outcome for "CC(=O)OCCC(C)C" , thank you.
Given back: inactive

Asked: Dear all, I need the recorded test outcome for "CC1(C)C(=O)N(Br)C(=O)N1Br" , thank you.
Given back: inactive

Asked: Dear all, I need the recorded test outcome for "On1ccccc1=S" , thank you.
Given back: active

Asked: Dear all, I need the recorded test outcome for "CCCCCCc1ccc(O)cc1O" , thank you.
Given back: inactive

Asked: Dear all, I need the recorded test outcome for "O=C(O)c1cc(N=Nc2ccc(S(=O)(=O)Nc3ccccn3)cc2)ccc1O" , thank you.
Given back: inactive

Asked: Dear all, I need the recorded test outcome for "C=CCCCCCCCCC(=O)O" , thank you.
Given back: inactive

Asked: Dear all, I need the recorded test outcome for "CC[C@H]1CC[C@H](NCc2cc3c(cc2OC)[C@H]2C[C@H]2C(=O)N3C)[C@H](c2ccccc2)N1" , thank you.
Given back: inactive

Asked: Dear all, I need the recorded test outcome for "CCNc1ccccc1" , thank you.
Given back: inactive

Asked: Dear all, I need the recorded test outcome for "O=P(OC(CCl)CCl)(OC(CCl)CCl)OC(CCl)CCl" , thank you.
Given back: inactive

Asked: Dear all, I need the recorded test outcome for CCOC(=O)c1ccc(C2CCC(NC[C@H](O)COc3ccc(O)c(NS(C)(=O)=O)c3)CC2)cc1 (stereo not given in full) , thank you.
Given back: inactive

Asked: Dear all, I need the recorded test outcome for "CNCc1ccc(NC(=O)c2c[nH]c3c2C(=O)CCC3)cc1" , thank you.
Given back: inactive

Asked: Dear all, I need the recorded test outcome for "COCCOCCOCCOC" , thank you.
Given back: inactive

Asked: Dear all, I need the recorded test outcome for "Cc1ccc(C)c(O)c1" , thank you.
Given back: inactive

---

Experiment: APR_HepG2_P-H2AX_72hr: Apredica 72-hour HepG2 Assay for H2AX Phosphorylation (AID 2282916);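 also: phospho-histone H2A.x immunostain intensity per cell marking DNA damage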
Details: imaging, actives raise or lower the signal
Method: APR_HepG2_72hr is a cell-based, multiplexed-readout assay that uses HepG2, a human liver cell line, with measurements taken at 72 hours after chemical dosing in a 384-well plate.APR_HepG2_P-H2AX_72hr is one of 10 assay component(s) measured or calculated from the APR_HepG2_72hr assay. […] This assay endpoint, APR_HepG2_P-H2AX_72hr, was analyzed with bidirectional fitting relative to DMSO as the negative control and baseline of activity. […]
The source made the active and inactive calls. Rule for the calls: active = hit-call score of the fitted dose curve at least 0.9, where 1 is the maximum; inactive = score below 0.9.
Valid outcomes are listed here; reply with one: active, inactive

{"columns": ["compound", "assigned_category"],
 "data": [
  ["CN(C)c1ccc(N=NS(=O)(=O)O)cc1", "inactive"]
]}

Asked: Dear all, I need the recorded test outcome for "O=C(O)c1cccc(N(Cc2cccnc2)c2ccc(OC(F)F)c(OC(F)F)c2)c1" , thank you.
Given back: active

Asked: Dear all, I need the recorded test outcome for "CC(=O)OC[C@H]1O[C@@](COC(C)=O)(O[C@H]2O[C@H](COC(C)=O)[C@@H](OC(C)=O)[C@H](OC(C)=O)[C@H]2OC(C)=O)[C@@H](OC(C)=O)[C@@H]1OC(C)=O" , thank you.
Given back: inactive

Asked: Dear all, I need the recorded test outcome for "CCCN(C1CCN(C(=O)C2CCNCC2)CC1)[C@@H]1CCc2ccc(OC)cc2C1" , thank you.
Given back: active

Asked: Dear all, I need the recorded test outcome for "COc1cccc(-c2ccc(/C=C\CN3CCCCCC3)cc2Cl)c1" , thank you.
Given back: active

Asked: Dear all, I need the recorded test outcome for CCOC(=O)COc1ccc2c(c1)CC(NCC(O)c1cccc(Cl)c1)CC2 (stereo unspecified) , thank you.
Given back: inactive

---

Read-out: Broad substrate specificity ATP-binding cassette transporter ABCG2 (Homo sapiens) (UniProt Q9UNQ0)
Sequence (Q9UNQ0 whole entry, looked up): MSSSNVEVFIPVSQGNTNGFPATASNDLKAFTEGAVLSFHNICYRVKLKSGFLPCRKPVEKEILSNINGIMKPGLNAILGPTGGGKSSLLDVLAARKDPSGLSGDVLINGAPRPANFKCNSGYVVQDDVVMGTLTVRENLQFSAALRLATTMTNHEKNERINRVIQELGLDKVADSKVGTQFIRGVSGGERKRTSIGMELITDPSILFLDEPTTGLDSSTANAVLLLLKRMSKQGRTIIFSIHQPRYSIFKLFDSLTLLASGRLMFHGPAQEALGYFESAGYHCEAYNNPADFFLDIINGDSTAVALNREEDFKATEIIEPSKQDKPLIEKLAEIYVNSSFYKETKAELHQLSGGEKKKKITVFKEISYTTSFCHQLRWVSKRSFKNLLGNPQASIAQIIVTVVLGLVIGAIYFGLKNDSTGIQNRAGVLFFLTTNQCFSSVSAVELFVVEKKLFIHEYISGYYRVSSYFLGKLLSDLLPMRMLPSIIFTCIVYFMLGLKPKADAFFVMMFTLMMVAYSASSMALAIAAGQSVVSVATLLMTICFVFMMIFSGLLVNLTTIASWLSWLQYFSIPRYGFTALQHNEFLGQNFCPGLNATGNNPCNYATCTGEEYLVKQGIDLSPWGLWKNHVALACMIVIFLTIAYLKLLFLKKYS
Assay: LTEA_HepaRG_ABCG2: Life Technologies and Expression Analysis (LTEA) Assay for ABC Transporter (ABCG2) using HepaRG (AID 2283465)
Conditions: mRNA level, 48 h; actives raise or lower the signal
Activity calls are given as the source filed them. Rule for the calls: active = hit-call score of the fitted dose curve at least 0.9, where 1 is the maximum; inactive = score below 0.9.
Valid outcomes are listed here; reply with one: active, inactive

{"columns": ["molecule_smiles", "assigned_category"],
 "data": [
  ["COc1cccc(-c2ccc(/C=C\\CN3CCCCCC3)cc2Cl)c1", "active"]
]}

Asked: Dear all, I need the recorded test outcome for "CC[C@H](C)C(=O)O[C@H]1C[C@@H](C)C=C2C=C[C@H](C)[C@H](CC[C@@H]3C[C@@H](O)CC(=O)O3)[C@H]21" , thank you.
Given back: inactive

Asked: Dear all, I need the recorded test outcome for "CCNc1ccccc1" , thank you.
Given back: inactive

Asked: Dear all, I need the recorded test outcome for "Cc1ccc(C)c(O)c1" , thank you.
Given back: inactive

Asked: Dear all, I need the recorded test outcome for "CCOC(=O)CC(CC(=O)OCC)(OC(C)=O)C(=O)OCC" , thank you.
Given back: inactive

---

Read-out: Urokinase-type plasminogen activator receptor (uPAR), PLAUR (gene 5329)
Test: BSK_BE3C_uPAR: BioMAP Diversity Plus: BE3C Assay for Urokinase-type plasminogen activator receptor (uPAR) Biomarker Activity (AID 2283039)
Details: primary human bronchial epithelial cells; actives raise or lower the signal
Procedure: BSK_BE3C is a cell-based, multiplexed-readout assay that uses bronchial epithelial cell, a human lung primary cell, with measurements taken at 24 hours after chemical dosing in a 96-well plate.BSK_BE3CAR is an assay component measured in the BSK_BE3C assay. It measures uPAR antibody related to regulation of gene expression using ELISA technology.Data from the assay component BSK_BE3CAR was analyzed into 1 assay endpoint. […]
Calls of active or inactive are those of the source. The calls were made as follows: active = hit-call score of the fitted dose curve at least 0.9, where 1 is the maximum; inactive = score below 0.9.
Valid outcomes are listed here; reply with one: active, inactive

Sample answers from the record:
{"columns": ["compound", "assigned_category"],
 "data": [
  ["CC(C)=CCC/C(C)=C\\CO", "inactive"],
  ["C[C@](N)(Cc1ccc(O)c(O)c1)C(=O)O", "inactive"],
  ["CCCCCCc1ccc(O)cc1O", "active"]
]}

Asked: Dear all, I need the recorded test outcome for "Cn1cnc([N+](=O)[O-])c1Sc1ncnc2nc[nH]c12" , thank you.
Given back: inactive

Asked: Dear all, I need the recorded test outcome for CCOC(=O)COc1ccc2c(c1)CC(NCC(O)c1cccc(Cl)c1)CC2 (centres undefined) , thank you.
Given back: inactive

Asked: Dear all, I need the recorded test outcome for "CCc1cc(SCc2sc(-c3ccc(C(F)(F)F)cc3)nc2CN2CCN(c3ccc(OC)cc3)CC2)ccc1OCC(=O)O" , thank you.
Given back: active

Asked: Dear all, I need the recorded test outcome for "COC(=O)c1c(Cl)c(Cl)c(C(=O)OC)c(Cl)c1Cl" , thank you.
Given back: inactive

---

Molecular target: Cellular tumor antigen p53 (Homo sapiens) (UniProt P04637)
Sequence (P04637 whole entry, looked up): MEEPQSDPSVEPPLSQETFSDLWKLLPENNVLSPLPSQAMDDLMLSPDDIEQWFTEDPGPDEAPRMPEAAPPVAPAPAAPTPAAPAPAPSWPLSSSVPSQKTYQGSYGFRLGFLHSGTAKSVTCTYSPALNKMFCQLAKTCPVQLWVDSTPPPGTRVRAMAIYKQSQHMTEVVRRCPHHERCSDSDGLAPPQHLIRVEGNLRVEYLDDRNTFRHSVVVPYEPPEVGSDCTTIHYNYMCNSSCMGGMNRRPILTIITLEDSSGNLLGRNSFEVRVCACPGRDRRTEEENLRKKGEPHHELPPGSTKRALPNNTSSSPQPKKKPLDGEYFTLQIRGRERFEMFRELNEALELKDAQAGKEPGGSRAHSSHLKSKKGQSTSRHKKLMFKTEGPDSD
Experiment: TOX21_p53_BLA_p2_ratio: Tox21 HCT-116 p53 Agonism Beta-lactamase Assay, Ratio, Phase 2 (AID 2283592)
Results filed as inconclusive are left out. The source made the active and inactive calls. Rule for the calls: active = hit-call score of the fitted dose curve at least 0.9, where 1 is the maximum; inconclusive = response in the unintended direction; inactive = score below 0.9.
Valid outcomes are listed here; reply with one: active, inactive

Sample answers from the record:
{"columns": ["molecule", "assigned_category"],
 "data": [
  ["CCOC(=O)CC(CC(=O)OCC)(OC(C)=O)C(=O)OCC", "inactive"],
  ["CC(C)CCCCCCCOC(=O)CCCCC(=O)OCCCCCCCC(C)C", "inactive"],
  ["O=C(O)CC(O)C(=O)O (stereo unspecified)", "inactive"]
]}

Asked: Dear all, I need the recorded test outcome for "CN(C)c1ccc(Cc2ccc(N(C)C)cc2)cc1" , thank you.
Given back: inactive

Asked: Dear all, I need the recorded test outcome for "CC(C)=CCC/C(C)=C\CO" , thank you.
Given back: inactive

Asked: Dear all, I need the recorded test outcome for "COC(=O)CC(=O)OC" , thank you.
Given back: inactive

Asked: Dear all, I need the recorded test outcome for CCOC(=O)COc1ccc2c(c1)CC(NCC(O)c1cccc(Cl)c1)CC2 (stereo unspecified) , thank you.
Given back: active

Asked: Dear all, I need the recorded test outcome for "CC(C)=CCC/C(C)=C/CO" , thank you.
Given back: inactive

Asked: Dear all, I need the recorded test outcome for O=C1CCC(N2C(=O)c3ccccc3C2=O)C(=O)N1 (stereo unspecified) , thank you.
Given back: inactive

Asked: Dear all, I need the recorded test outcome for "Cc1ccc(C)c(O)c1" , thank you.
Given back: inactive

Asked: Dear all, I need the recorded test outcome for "CCCN(C1CCN(C(=O)C2CCNCC2)CC1)[C@@H]1CCc2ccc(OC)cc2C1" , thank you.
Given back: inactive
